Target protein (sequence): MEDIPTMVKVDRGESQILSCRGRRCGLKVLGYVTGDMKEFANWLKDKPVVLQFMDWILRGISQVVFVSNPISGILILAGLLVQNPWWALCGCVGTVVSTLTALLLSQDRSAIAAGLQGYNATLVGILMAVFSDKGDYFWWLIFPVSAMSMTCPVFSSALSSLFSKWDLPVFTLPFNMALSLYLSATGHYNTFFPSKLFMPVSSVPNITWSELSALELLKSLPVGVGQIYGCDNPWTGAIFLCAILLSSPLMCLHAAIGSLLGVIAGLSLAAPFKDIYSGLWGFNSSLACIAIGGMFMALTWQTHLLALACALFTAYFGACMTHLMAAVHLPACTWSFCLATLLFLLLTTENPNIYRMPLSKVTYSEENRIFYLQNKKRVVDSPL
pIC50: −log10 of the molar value.
Respond with label 1 for pIC50 values of 5 and above, label 0 for values below.

COMPOUND	CATEGORY
COc1cccc2c(Nc3ccc(C)c(F)c3)cc(C(=O)N3CCCCC3)nc12	label 0
CSc1nc(Nc2ccc(Nc3ccccc3)cc2)nc(SC)n1	label 0
CCc1ccc(S(=O)(=O)c2nnn3c2nc(NCCCOC)c2sccc23)cc1	label 0
COc1ccc(Nc2cc(C(=O)N3CCSCC3)nc3c(OC)cccc23)cc1	label 1
COc1cccc(/C=C2/SC(=N)NC2=O)c1O	label 1
O=S(=O)(c1ccc(Br)cc1)c1nnn2c1nc(N=S1C=CC=C1)c1sccc12	label 1
CNc1nc2c(S(=O)(=O)c3ccccc3)nnn2c2ccsc12 [UT-A1 inhibitor D2]	label 0
